Tested on: S. typhimurium TA1535/pSK1002 (umu D,C SOS gene, β-galactosidase expression)
Test: Conventional colorimetric method (umu test, β-galactosidase activity), Comparative Example 3
Measurement Conditions: Table 1; response two times that without test substance; 37° C., 2 hours; S9Mix where necessary
Everything with Minimum detectable concentration, Conventional Method lower than 0.3 µg/mL is no; everything else, including exactly 0.3 µg/mL, is yes.

Compound | Assigned Category
O=[N+]([O-])c1cc[n+]([O-])c2ccccc12 [4NQO, 4-nitroquinoline 1-oxide] | no
NC(=O)C(=Cc1ccc([N+](=O)[O-])o1)c1ccco1 [AF-2] | no
c1ccc2c(c1)cc1ccc3cccc4ccc2c1c34 [Bap, benzo[a]pyrene] | yes
Nc1ccc2cc3ccccc3cc2c1 [2-AA, 2-aminoanthracene] | no

---

Tested on: S. typhimurium TA1535 (umu D,C SOS gene, luciferase expression)
Measurement Conditions: Table 1; response two times that without test substance; 37° C., 2 hours; S9Mix where necessary
Checkbox rule: Minimum detectable concentration, Method of Present Invention lower than 0.04 µg/mL = class 1; Minimum detectable concentration, Method of Present Invention not lower than 0.04 µg/mL = class 0.

Compound | Assigned Category
NC(=O)C(=Cc1ccc([N+](=O)[O-])o1)c1ccco1 | class 1
O=[N+]([O-])c1cc[n+]([O-])c2ccccc12 [4NQO, 4-nitroquinoline 1-oxide] | class 1
O=[N+]([O-])c1ccc2ccc3cccc4ccc1c2c34 | class 1
c1ccc2c(c1)cc1ccc3cccc4ccc2c1c34 [Bap, benzo[a]pyrene] | class 0

---

Test system: S. typhimurium TA1535 (umu D,C SOS gene, luminescence genes of pUCD620)
Test: Luminescence assay with genes for luciferase and the enzyme producing its substrate, Example 6
Measurement Conditions: Table 2; response two times that without test substance; 30° C., 2 hours; S9 Mix where necessary
Metric Name: Minimum detectable concentration, Method of Present Invention (µg/mL)

Molecule | Value Observed
Nc1ccc2cc3ccccc3cc2c1 | 0.02
O=[N+]([O-])c1ccc2ccc3cccc4ccc1c2c34 | 0.05
c1ccc2c(c1)cc1ccc3cccc4ccc2c1c34 [Bap, benzo[a]pyrene] | 0.04
O=[N+]([O-])c1cc[n+]([O-])c2ccccc12 [4NQO, 4-nitroquinoline 1-oxide] | 0.008
NC(=O)C(=Cc1ccc([N+](=O)[O-])o1)c1ccco1 | 0.0005

---

System: S. typhimurium TA1535/pSK1002 (umu D,C SOS gene, β-galactosidase expression)
Test: Conventional colorimetric method (umu test, β-galactosidase activity), Comparative Example 4
Measurement Conditions: Table 2; response two times that without test substance; 37° C., 2 hours; S9 Mix where necessary
Metric Name: Minimum detectable concentration, Conventional Method (µg/mL)

Compound | Value Observed
c1ccc2c(c1)cc1ccc3cccc4ccc2c1c34 [Bap, benzo[a]pyrene] | 1
NC(=O)C(=Cc1ccc([N+](=O)[O-])o1)c1ccco1 [AF-2] | 0.003
O=[N+]([O-])c1ccc2ccc3cccc4ccc1c2c34 [1-NP, 1-nitropyrene] | 0.3
Nc1ccc2cc3ccccc3cc2c1 [2-AA, 2-aminoanthracene] | 0.1
O=[N+]([O-])c1cc[n+]([O-])c2ccccc12 [4NQO, 4-nitroquinoline 1-oxide] | 0.04

---

Test: Conventional colorimetric method (umu test, β-galactosidase activity), Comparative Example 3
Measurement Conditions: s. typhimurium ta1535/psk1002
Metric Name: maximal fold induction

Smiles Notation | Value Observed
NC(=O)C(=Cc1ccc([N+](=O)[O-])o1)c1ccco1 | ~5

Numbers sourced from patent US5702883A.
